# PROTOCOL SUMMARY: self-splicing fitness, log relative to wild type (ln ratio); higher = more splicing; Tetrahymena group I intron in knt gene, E. coli kanamycin selection, DiMSum; sequences stand for … in CUCUCU…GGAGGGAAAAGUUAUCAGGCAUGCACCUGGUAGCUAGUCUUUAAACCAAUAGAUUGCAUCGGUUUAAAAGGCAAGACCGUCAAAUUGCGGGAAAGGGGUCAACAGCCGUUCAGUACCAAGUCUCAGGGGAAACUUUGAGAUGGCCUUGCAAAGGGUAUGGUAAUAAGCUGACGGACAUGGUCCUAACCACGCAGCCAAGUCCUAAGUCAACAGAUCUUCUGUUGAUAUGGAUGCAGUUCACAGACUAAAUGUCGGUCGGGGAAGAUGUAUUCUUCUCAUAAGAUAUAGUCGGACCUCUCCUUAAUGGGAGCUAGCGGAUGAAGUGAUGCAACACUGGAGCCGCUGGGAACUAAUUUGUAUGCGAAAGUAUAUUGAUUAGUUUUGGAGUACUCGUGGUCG;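 note: selection with 25 µg/mL kanamycin versus none on LB agar overnight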
# RUN PARAMETERS: 30 °C
Each record's self-splicing fitness (ln) is compared with c1: < -3; c2: ≥ -3 and < -2; c3: ≥ -2 to give its class.

Example entries and their recorded answers appear below.
UGCAAGCAAUAUUACGACGA	c3
AAAGAGCAAUAUUACGUUAA	c1
UUUAAGCAAUAUUACGUACG	c3
GCCAAGCAAUAUUACGAACU	c3
GGUAAGCAAUAUUACGGACG	c3

Could you place AGGAAGCAAUAUUACGCUCU in its proper category? Many thanks.
c2

Could you place CCGGAGCAAUAUUACGGCCG in its proper category? Many thanks.
c2

Could you place AAAAAGCAAUAUUACGAGCG in its proper category? Many thanks.
c3

Could you place GAAUAGCAAUAUUACGGCCG in its proper category? Many thanks.
c3

Could you place UAUUAGCAAUAUUACGUAAA in its proper category? Many thanks.
c2

Could you place UAAGAGCAAUAUUACGGAGG in its proper category? Many thanks.
c1

Could you place UGAGAGCAAUAUUACGCACC in its proper category? Many thanks.
c3

Could you place GAAGAGCAAUAUUACGCCCU in its proper category? Many thanks.
c2

Could you place CCCAAGCAAUAUUACGCAUU in its proper category? Many thanks.
c1

Could you place CGUAAGCAAUAUUACGGUGC in its proper category? Many thanks.
c2

Could you place GGGGAGCAAUAUUACGCGCG in its proper category? Many thanks.
c3

Could you place GCCAAGCAAUAUUACGAGUC in its proper category? Many thanks.
c3

Could you place UACUAGCAAUAUUACGUUGU in its proper category? Many thanks.
c2

Could you place ACCUAGCAAUAUUACGGGAU in its proper category? Many thanks.
c2

Could you place GGCUAGCAAUAUUACGCACC in its proper category? Many thanks.
c3

Could you place AUGUAGCAAUAUUACGUGUA in its proper category? Many thanks.
c2

----------
# PROTOCOL SUMMARY: self-splicing fitness, log relative to wild type (ln ratio); higher = more splicing; Tetrahymena group I intron in knt gene, E. coli kanamycin selection, DiMSum; sequences stand for … in CUCUCU…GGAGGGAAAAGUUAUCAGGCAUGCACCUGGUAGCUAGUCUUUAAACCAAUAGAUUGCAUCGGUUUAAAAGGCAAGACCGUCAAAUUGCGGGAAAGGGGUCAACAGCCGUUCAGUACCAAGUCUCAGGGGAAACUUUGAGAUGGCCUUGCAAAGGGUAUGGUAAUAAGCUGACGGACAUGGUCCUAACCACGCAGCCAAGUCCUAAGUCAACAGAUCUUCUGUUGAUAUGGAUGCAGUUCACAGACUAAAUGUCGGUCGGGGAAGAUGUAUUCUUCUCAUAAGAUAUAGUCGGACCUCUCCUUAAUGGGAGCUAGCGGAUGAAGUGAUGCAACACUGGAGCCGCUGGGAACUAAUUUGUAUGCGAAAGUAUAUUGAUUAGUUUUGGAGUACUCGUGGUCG
# RUN PARAMETERS: 37 °C
Answer each item with its documented self-splicing fitness (ln).
Numbers only.

// known answers, use as guide
UGGUAGCAAUAUUACGGAAA	-1.81
GGGAAGCAAUAUUACGAAUA	-1
GGUUAGCAAUAUUACGCGGU	-2.36
CAACAGCAAUAUUACGAGUC	-2.58
AACGAGCAAUAUUACGAUUA	-1.02
GGGAAGCAAUAUUACGGACA	-0.0303
CCGAAGCAAUAUUACGCCGG	-2.21
GUUCAGCAAUAUUACGAAUC	-2.29
GAAAAGCAAUAUUACGGCUG	0.108
GAUCAGCAAUAUUACGCGAG	-1.15

Could you report self-splicing fitness (ln) for every entry in the following list?
1. GAAUAGCAAUAUUACGAUAU
2. AUCAAGCAAUAUUACGCGUU
3. UUGUAGCAAUAUUACGAAUC

[-0.744, -0.858, -2.76]

Could you report self-splicing fitness (ln) for every entry in the following list?
1. UGAUAGCAAUAUUACGCCCU
2. GCACAGCAAUAUUACGGUAU

[0.0233, 0.102]

Given the sequence AGCAAGCAAUAUUACGCUCA , what is its reported self-splicing fitness (ln)?
-1.69

----------
# PROTOCOL SUMMARY: self-splicing fitness, log relative to wild type (ln ratio); higher = more splicing; Tetrahymena group I intron in knt gene, E. coli kanamycin selection, DiMSum; sequences stand for … in CUCUCU…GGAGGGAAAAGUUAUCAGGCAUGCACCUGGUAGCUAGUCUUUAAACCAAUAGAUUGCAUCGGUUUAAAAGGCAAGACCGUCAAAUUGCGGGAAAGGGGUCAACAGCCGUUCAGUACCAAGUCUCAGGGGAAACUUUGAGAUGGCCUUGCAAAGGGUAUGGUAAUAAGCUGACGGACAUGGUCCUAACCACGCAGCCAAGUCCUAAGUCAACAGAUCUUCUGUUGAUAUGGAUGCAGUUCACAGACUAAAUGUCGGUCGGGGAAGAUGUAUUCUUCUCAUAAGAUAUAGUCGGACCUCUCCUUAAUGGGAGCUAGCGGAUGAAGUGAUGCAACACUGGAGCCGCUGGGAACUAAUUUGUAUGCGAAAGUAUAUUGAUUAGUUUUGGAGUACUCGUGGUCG
# RUN PARAMETERS: 37 °C
OBSERVABLE: self-splicing fitness (ln)
Answers are plain numbers.

// known answers, use as guide
GACCAGCAAUAUUACGGUAU	-0.678
CUGGAGCAAUAUUACGUAGC	-2.38
GAAAAGCAAUAUUACGAGUU	0.164

Could you report self-splicing fitness (ln) for every entry in the following list?
1. GUAAAGCAAUAUUACGCUUA
2. ACUAAGCAAUAUUACGAGCA
3. AUUCAGCAAUAUUACGGCGU
4. AUUAAGCAAUAUUACGCUUA
5. ACGAAGCAAUAUUACGUAAU
6. GAACAGCAAUAUUACGAGCG

[-0.77, -0.197, 0.488, -1.82, -1.23, -0.559]

----------
# PROTOCOL SUMMARY: self-splicing fitness, log relative to wild type (ln ratio); higher = more splicing; Tetrahymena group I intron in knt gene, E. coli kanamycin selection, DiMSum; sequences stand for … in CUCUCU…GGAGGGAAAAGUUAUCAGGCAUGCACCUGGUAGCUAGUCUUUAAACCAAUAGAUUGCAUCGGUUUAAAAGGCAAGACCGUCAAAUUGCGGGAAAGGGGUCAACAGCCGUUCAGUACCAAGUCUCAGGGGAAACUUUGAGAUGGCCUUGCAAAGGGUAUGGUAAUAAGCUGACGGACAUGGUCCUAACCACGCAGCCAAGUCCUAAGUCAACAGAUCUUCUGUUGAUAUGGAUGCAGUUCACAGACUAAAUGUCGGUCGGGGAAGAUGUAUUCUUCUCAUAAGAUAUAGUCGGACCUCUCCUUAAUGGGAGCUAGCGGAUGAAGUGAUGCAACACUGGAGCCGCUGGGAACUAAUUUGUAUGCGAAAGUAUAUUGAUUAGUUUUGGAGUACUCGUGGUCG
# RUN PARAMETERS: 37 °C
Answer each item with its documented self-splicing fitness (ln).
Give bare numbers.

// known answers, use as guide
GUUCAGCAAUAUUACGGGCU	-1.56
UCCUAGCAAUAUUACGGUAA	-0.427
AAGAAGCAAUAUUACGCACC	-0.644

Could you report self-splicing fitness (ln) for every entry in the following list?
1. ACGGAGCAAUAUUACGAUGU
2. AUAUAGCAAUAUUACGUGGA
3. AGGCAGCAAUAUUACGCCAA
4. GCGCAGCAAUAUUACGUCUU
5. CCACAGCAAUAUUACGUCCU
6. AUUAAGCAAUAUUACGCGCA
7. UGUUAGCAAUAUUACGGCAC
8. AACUAGCAAUAUUACGUAUA

1: -2.52; 2: -3.04; 3: -0.179; 4: 0.336; 5: -1.76; 6: 0.376; 7: -1.51; 8: -0.938

Where these numbers come from: the supplement of paper PMC7877785
